Reference source: ChEMBL document CHEMBL4400510

Assay: AUC (0 to infinity) in ICR mouse at 25 mg/kg, po by HPLC analysis
Type: ADME, organism-based
Design: dose 25 mg/kg, route oral, time infinity
Details: in vivo
property: AUC(0-inf)
Just the number plus its unit, please.

>  <molecule>
CCc1nc2ccc(Cl)cn2c1C(=O)NCc1ccc(N2CCN(CC3CCCCC3)CC2)cc1

>  <test-value>
53800 ng·h/mL

$$$$
>  <molecule>
CCc1nc2ccc(Cl)cn2c1C(=O)NCc1ccc(N2CC3CN(Cc4ccc(OC(F)(F)F)cc4)CC3C2)cc1 (centres undefined)

>  <test-value>
19800 ng·h/mL

$$$$
>  <molecule>
CCc1nc2ccc(Cl)cn2c1C(=O)NCc1ccc(N2CCC3(CC2)CCN(c2ccc(OC(F)(F)F)cc2)CC3)cc1

>  <test-value>
153000 ng·h/mL

$$$$

Now look at this entry.
AUC(0-inf) lookup needed for CCc1nc2ccc(Cl)cn2c1C(=O)NCc1ccc(N2CC3CN(CC4CCCCC4)CC3C2)cc1 (centres undefined) , thanks.
9050 ng·h/mL

----------
Assay: Aqueous solubility of the compound in 0.01 M HCl at pH 2 after 12 hrs by UV-based HPLC analysis
Assay type: physicochemical
property: solubility at 12 h (µg/mL)
Give a bare numeral; the unit µg/mL is implied.

Past entries and their recorded results:
>  <molecule>
CCc1nc2ccc(Cl)cn2c1C(=O)NCc1ccc(N2CCC3(CC2)CCN(c2ccc(OC(F)(F)F)cc2)CC3)cc1

>  <solubility at 12 h (µg/mL)>
1110

$$$$
>  <molecule>
CCc1nc2ccc(Cl)cn2c1C(=O)NCc1ccc(N2CC3CN(Cc4ccc(OC(F)(F)F)cc4)CC3C2)cc1 (centres undefined)

>  <solubility at 12 h (µg/mL)>
1130

$$$$
>  <molecule>
CCc1nc2ccc(Cl)cn2c1C(=O)NCc1ccc(N2CCN(CC3CCCCC3)CC2)cc1

>  <solubility at 12 h (µg/mL)>
1230

$$$$

Now look at this entry.
solubility at 12 h lookup needed for CCc1nc2ccc(Cl)cn2c1C(=O)NCc1ccc(N2CC3CN(CC4CCCCC4)CC3C2)cc1 (centres undefined) , thanks.
628

----------
Test: Half life in ICR mouse at 25 mg/kg, po by HPLC analysis
Type: ADME, organism-based
Conditions: in vivo
property: half-life (h)
Give a bare numeral; the unit h is implied.

Past entries and their recorded results:
>  <molecule>
CCc1nc2ccc(Cl)cn2c1C(=O)NCc1ccc(N2CCN(CC3CCCCC3)CC2)cc1

>  <half-life / h>
2.75

$$$$
>  <molecule>
CCc1nc2ccc(Cl)cn2c1C(=O)NCc1ccc(N2CCC3(CC2)CCN(c2ccc(OC(F)(F)F)cc2)CC3)cc1

>  <half-life / h>
12.3

$$$$
>  <molecule>
CCc1nc2ccc(Cl)cn2c1C(=O)NCc1ccc(N2CC3CN(Cc4ccc(OC(F)(F)F)cc4)CC3C2)cc1 (centres undefined)

>  <half-life / h>
5.23

$$$$

Now look at this entry.
half-life lookup needed for CCc1nc2ccc(Cl)cn2c1C(=O)NCc1ccc(N2CC3CN(CC4CCCCC4)CC3C2)cc1 (centres undefined) , thanks.
4.27

----------
Experiment: Cytotoxicity against African green monkey Vero cells measured after 72 hrs by MTT assay
Type: cell-based
Conditions: chlorocebus sabaeus
property: CC50 at 72 h (µM)
Give a bare numeral; the unit µM is implied.

Past entries and their recorded results:
>  <compound>
CCc1nc2ccc(Cl)cn2c1C(=O)NCc1ccc(N2CC3CN(Cc4ccc(OC(F)(F)F)cc4)CC3C2)cc1 (stereo not given)

>  <CC50 at 72 h (µM)>
20.5

$$$$
>  <compound>
CCc1nc2ccc(Cl)cn2c1C(=O)NCc1ccc(N2CCN(CC3CCCCC3)CC2)cc1

>  <CC50 at 72 h (µM)>
53.5

$$$$

CC50 at 72 h lookup needed for "CCc1nc2ccc(Cl)cn2c1C(=O)NCc1ccc(N2CCC3(CC2)CCN(c2ccc(OC(F)(F)F)cc2)CC3)cc1" , thanks.
70.2
